Value source: PubChem BioAssay (NCI)

Tested on: HCT-116 colon
Experiment: NCI-60 one-dose screen, 48 h
Conditions: 10 µM unless noted
Compounds without any hit were thinned out: in the full panel of roughly 83,000, 20% have a hit. Calls of active or inactive are those of the source. How the source made its calls: active means growth percent below 10; inactive means the rest.
Give one outcome, nothing more. List: y for active, n for inactive

Hi team, can someone confirm the assay call for "CN(C)c1ccc(/C=C2\C=C(c3ccccc3)N(CCc3ccccc3)C2=O)cc1" ?
n

What is the recorded call for this molecule in the test? O=C(/C=C/C12c3ccccc3C(c3ccccc31)C1C(=O)N(c3ccccc3)C(=O)C12)c1ccc(Cl)cc1 (configuration not stated)
y

How was "CCn1c(Sc2nnc(NC(C)=O)s2)nc2c1c(=O)n(C)c(=O)n2C" classified in this test?
n

Status in this test for "Nc1nc(Nc2ccc(Cl)cc2)nn1S(=O)(=O)c1ccc(-c2ccc(F)cc2)cc1" ?
n

State the result this test recorded for "Clc1ccc(-c2nc(NCCc3ccccc3)nc3c(NCCc4ccccc4)cnn23)cc1" .
n

Record lookup: outcome of this test for "COc1cc2c(cc1OC)-c1ccc3cc4c(cc3c1N(CCN(C)C)C2)OCO4" ?
y

Dear all, I need the recorded test outcome for "O=C(Nc1ccccn1)[C@H](O)[C@@H](O)C(=O)N1CCOCC1" , thank you.
n

Which outcome was entered for the molecule "CCn1nc(C#Cc2c(C)ccc3c(Nc4ccc(Cl)cc4)nccc23)c2c(N)ncnc21" in this test?
y

Hi, do you know how "N#Cc1c(N)nc2c(nnn2-c2cccc(C(F)(F)F)c2)c1N" came out in this test?
n

# fetch the recorded call for "O=C(/C=C/c1ccccc1)c1ccc2ccccc2c1" here
y

Assay outcome for "Cc1cc(N(CCCNc2ccnc3cc(Cl)ccc23)Cc2ccccn2)nc(N2CCCC2)n1" : what was it?
n

Query: recorded result category for "Cc1ccc(/C(=N\N=C(N)N)c2ccccc2)cc1" in this test
y

Just curious, what result did "CCN(CC)CCNc1ccc(C)c2sc3cc(C)ccc3c(=O)c12" get here?
n

Please share the test call associated with "CC(C)(C)c1ccc(C(=O)Nc2sc3c(c2C(N)=O)CCC(=O)C3)cc1" .
y

Any idea what this test logged for "Cc1cnc(Nc2ccc(OCCN3CCCC3)cc2)nc1NCc1ccco1" ?
n

Which outcome did this test record for the molecule "COc1ccc(-c2nc3sccn3c2/C=C/C(=O)c2c[nH]c3ccccc23)cc1" ?
n

So what was the verdict on "CCOC(=O)c1ccc(-c2ccc3cc(OC)ccc3c2)nc1C" in this test?
n

In this assay, the call recorded for "C=CC(=O)Nc1cccc(C)c1Nc1cc(-c2cccnc2Cc2c(C)c(OC)cc(OC)c2C)ncn1" was what?
n

Hi team, can someone confirm the assay call for "O=C1NN(C(=O)c2ccc(O)cc2)C(c2ccccc2)=N/C1=C\c1cn(-c2ccccc2)nc1-c1ccccc1" ?
n

Hi, sorry to bother you, what did the test record for "CN(C)c1ccc(C#Cc2c(F)cccc2Cl)cc1" ?
n

Entry O=C1N(c2ccccc2)C(=S)N[C@]12[C@H](c1ccccc1)C1CCCN1[C@]21C(=O)NC2C=CC(Cl)=C[C@H]21 (some centres not stated) : call = ?
n

What did the test return for "NS(=O)(=O)c1cn(-c2ncnc3nc[nH]c23)ccc1=O" ?
n

How was "CCN(CC)CCOC(=O)Nc1ccccc1Cl" classified in this test?
n

Record request — test call for "NC(=O)CC1(O)C=C(Br)C(=O)C(Br)=C1"
y

Short answer needed: outcome of this test for "CCN(CC)CC(=O)Nc1cccc(C(=O)OC(C)C)c1" ?
n

Which outcome did this test record for the molecule "C#CC[C@H](N)C(=O)O" ?
n

What is the recorded call for this molecule in the test? OC(c1cccc(OCc2ccccc2)c1)c1nnc(-c2ccccc2)o1 (configuration not stated)
n

Could you kindly confirm the outcome this assay logged for "CN(C)CCCCNc1ccc(NCCCCN(C)C)c2c1C(=O)c1c(O)ccc(O)c1C2=O" ?
y

// return assay outcome for "CC1(C)C(=O)/C(=C\c2cccnc2)C[C@]2(C)[C@H]3CC=C4[C@@H]5C[C@@](C)(C(=O)O)CC[C@]5(C)CC[C@@]4(C)[C@]3(C)CC[C@@H]12"
n

Outcome? "COc1cc(-c2ccc(-c3ccc(C(=N)N)nc3)s2)cc(OC)c1OC"
y

# lookup: test call for "Cc1nc(Nc2ccc(NC(=S)Nc3ccccc3)cc2)nc2nc(Nc3cccc(Cl)c3)[nH]c(=O)c12"
n

So what was the verdict on CC12CC(C#N)CCC1O2 (configuration not stated) in this test?
n

Assay result, entry CCOc1cc(C2C(Cl)C(=O)N2n2cnnc2)ccc1O (configuration not stated) — outcome?
n

Per the records of this test, what outcome belongs to "COc1ccc(-c2cncnc2N)cc1OC" ?
n

For "COC(=O)c1ccc2oc(NC(=O)c3ccc(N4CCOCC4)c([N+](=O)[O-])c3)nc2c1" , what call appears in the results of this test?
n

Recorded test outcome, item "O=[N+]([O-])c1ccc(-c2cc3c(Nc4ccc(Cl)c(C(F)(F)F)c4)ncnc3s2)cc1"
y

Call for entry "N=C(N)c1ccc(-c2ccc(-c3ccc(Cl)cn3)s2)cc1" :
y

Kindly provide the recorded test outcome for the following molecule: "NC(=S)c1csc(CCNC(=O)c2ccccc2)n1"
n

Query: recorded result category for O=C(/C=C/C12c3ccccc3C(c3ccccc31)C1C(=O)N(c3ccc(Cl)cc3)C(=O)C12)c1ccccn1 (configuration not stated) in this test
y

Outcome logged for CSc1nc(N)c(CNC(C)c2ccccc2)c(=O)n1C (configuration not stated) in this assay:
n

What call does the record list for "N=C(N)c1ccc(-c2ccc(/C=C/c3ccccc3)s2)cc1" ?
y

Hi team, can someone confirm the assay call for "Cc1nc(Nc2ccc(NC(=S)Nc3ccccc3)cc2)nc2nc(Nc3ccc(S(=O)(=O)O)cc3)[nH]c(=O)c12" ?
n
